Tgt: His-LC3A (human, UniProt Q9H492 1-121)
Measurement description: ITC; 0.6 mM peptide titrated into 0.06 mM His-LC3/GABARAP protein in 20 steps at 25 °C; 50 mM Tris pH 7.0, 25 mM NaCl; one-site binding model
Stated conditions: both partners purified
Attribute measured: Kd (nM)
Please reply with the bare figure in nM and do not write the unit itself.

Documented Kd of DEDPETSWILLN (source: synthetic peptide (GenScript)) [hEPG5-LIR2 peptide] : 1750
